# assay-remarks: Biodistribution of the 99mTc(N) heterocomplexes in rats (organ uptake, heart accumulation, heart/lung and heart/liver ratios)
# Assay type: in vivo, female Sprague-Dawley rats
# setup-conditions: rats, 10 min
Each entry below lists one item and its recorded Heart/lung ratio in biodistribution value.

Some molecules with recorded Heart/lung ratio in biodistribution:
molecule="CCOCCN1CC[P](CCCOC)(CCCOC)[99Tc+]2(#[N])([S]C(N(CCOCC)CCOCC)=[S]2)[P](CCCOC)(CCCOC)CC1 [[^99mTc(N) (PNP5) (DBODC)^+]]" value_reported=4.19
molecule="CCOCCN(CCOCC)C1=[S][99Tc+]2(#[N])([S]1)[P](CCCOC)(CCCOC)CCN(CCOC)CC[P]2(CCCOC)CCCOC [[^99m−Tc(N) (PNP3) (DBODC)^+]]" value_reported=4.74
molecule="CCOCCC[P]1(CCCOCC)CCN(CCOCC)CC[P](CCCOCC)(CCCOCC)[99Tc+]12(#[N])[S]C(N(CCOCC)CCOCC)=[S]2 [[^99mTc(N) (PNP6) (DBODC)^+]]" value_reported=1.26
molecule="COCCC[P]1(CCCOC)CCN(CCOC)CC[P](CCCOC)(CCCOC)[99Tc+]12(#[N])[S]C(N(CCOC)CCOC)=[S]2 [[^99m−Tc(N) (PNP3) (DPODC)^+]]" value_reported=3.54

Please fill in: Heart/lung ratio in biodistribution reported for CCOCCN1CC[P](CCCOC)(CCCOC)[99Tc+]2(#[N])([S]C(N(CCOCC)C(C)C)=[S]2)[P](CCCOC)(CCCOC)CC1 [[^99mTc(N) (PNP5) (ISOET)^+]] = 3.99
